molecules and their reported RP-LC retention time
# test description: gradient 5% acetonitrile 3 min, to 50% in 2 min, to 85% in 15 min, held 3 min, 100 µL/min
# conditions: column: Zorbax Extend-C18 2.1 x 50 mm; eluents: water / acetonitrile, 0.1% formic acid
Please give a number only; it is taken to be in s.

molecule: CSc1cccc(NC(=O)C2CCN(c3nccc(C)n3)CC2)c1
scale unit: s
RP-LC retention time: 700
//
molecule: Cc1noc(C)c1-c1ccc(S(=O)(=O)NCc2ccc(F)cc2)cc1
scale unit: s
RP-LC retention time: 942
//
molecule: COc1ccc(NC(=O)CN2C(=O)CCc3cc(Br)ccc32)c(OC)c1
scale unit: s
RP-LC retention time: 900
//
molecule: Cc1cccc(-c2nc(Cn3nnc(-c4nc(-c5ccccc5Br)no4)c3C)c(C)o2)c1
scale unit: s
RP-LC retention time: 1310
//
molecule: Cc1cc(C)cc(OCCNS(=O)(=O)c2cccs2)c1
scale unit: s
RP-LC retention time: 935

Problem: Answer with the recorded RP-LC retention time for the molecule listed here: Cc1cccc(N2CCN(S(=O)(=O)c3ccc4c(c3)CCCC(=O)N4)CC2C)c1 (centres undefined)
Result: 881

Problem: Answer with the recorded RP-LC retention time for the molecule listed here: Cc1cc(N2CCCCCC2)n2nc(CN3CCN(C(C)C)CC3)nc2n1
Result: 555

Problem: Answer with the recorded RP-LC retention time for the molecule listed here: Cc1c(S(=O)(=O)N2CCC(C(=O)NCc3csc(-c4ccccc4)n3)CC2)cnn1C(F)F
Result: 868

Problem: Answer with the recorded RP-LC retention time for the molecule listed here: O=c1n(Cc2ccc(F)cc2)nc2ccc(S(=O)(=O)N3CCOCC3)cn12
Result: 785

Problem: Answer with the recorded RP-LC retention time for the molecule listed here: CCOC(=O)c1[nH]c(C)c(CCC(=O)NC(C)c2ccc3c(c2)OCCO3)c1C (centres undefined)
Result: 821

Problem: Answer with the recorded RP-LC retention time for the molecule listed here: COC(=O)[C@H]1[C@H]2C[C@@H]3c4[nH]c5cc(OC)ccc5c4CCN3C[C@H]2C[C@@H](OC(=O)CC(C)=O)[C@@H]1OC
Result: 731

Problem: Answer with the recorded RP-LC retention time for the molecule listed here: Cc1cc2c(cc1S(=O)(=O)N1CCCC1C(=O)NC1CCCC1)OCC(=O)N2 (centres undefined)
Result: 718

Problem: Answer with the recorded RP-LC retention time for the molecule listed here: CCCNC(=O)N1N=C(c2ccc(N)cc2)c2cc3c(cc2C1C)OCO3 (centres undefined)
Result: 854

Problem: Answer with the recorded RP-LC retention time for the molecule listed here: CC(C)c1ccc(OCC(=O)N(Cc2ccc(Br)o2)C2CCS(=O)(=O)C2)cc1 (centres undefined)
Result: 1050

Problem: Answer with the recorded RP-LC retention time for the molecule listed here: O=C(CCSc1ccccc1)Nc1cccc2ccc(-n3ccnc3)nc12
Result: 648

Problem: Answer with the recorded RP-LC retention time for the molecule listed here: O=C(Nc1ccc(-c2cn3cccnc3n2)cc1)c1cccs1
Result: 629

Problem: Answer with the recorded RP-LC retention time for the molecule listed here: COc1ccc(NS(=O)(=O)c2cc(-c3nnc(C(=O)N4CCCC4)o3)sc2C)c(OC)c1
Result: 846

Problem: Answer with the recorded RP-LC retention time for the molecule listed here: COc1ccc(Cl)cc1NC(=O)CSc1ccc(N2CCCC(C(=O)NC3CC3)C2)nn1 (centres undefined)
Result: 753

Problem: Answer with the recorded RP-LC retention time for the molecule listed here: Cc1cc(N2CCN(c3ccccn3)CC2)n2ncc(-c3ccc(F)cc3)c2n1
Result: 732
